# System: P388 leukemia ip, CD2F1 mice, survival T/C
# measurement-notes: NCI In Vivo Anticancer Drug Screen. Data for tumor model P388 Leukemia (intraperitoneal) in CD2F1 (CDF1) mice
# experimental-parameters: endpoint: median survival time; dose: 240.0 mg/kg/injection; schedule: Q01DX005 (ip); vehicle: Klucel (hydroxypropylcellulose) (HPC); higher = longer survival
Inconclusive results and toxic doses are left out.
Listed here: items and their measured T/C.

{"compound": "CC(=O)c1c(C)oc(C)c1-c1ccc2c(c1)OCO2", "assayed-target": "P388 leukemia ip, CD2F1 mice, survival T/C", "T/C": "104 % of control"}
{"compound": "CC(=O)C(CCCn1c(=O)c2c(ncn2C)n(C)c1=O)CCCn1c(=O)c2c(ncn2C)n(C)c1=O", "assayed-target": "P388 leukemia ip, CD2F1 mice, survival T/C", "T/C": "104 % of control"}
{"compound": "O=S(=O)(O)c1ccc2c(-c3ccccc3)c3ccccc3c(-c3ccccc3)c2c1", "assayed-target": "P388 leukemia ip, CD2F1 mice, survival T/C", "T/C": "98 % of control"}
{"compound": "O=C1C2=C(Nc3cc([N+](=O)[O-])ccc3N2)OC1c1ccc(C2OC3=C(Nc4ccc([N+](=O)[O-])cc4N3)C2=O)cc1 (stereo not given)", "assayed-target": "P388 leukemia ip, CD2F1 mice, survival T/C", "T/C": "99 % of control"}
{"compound": "CSc1n[nH]c(C(F)(F)F)n1", "assayed-target": "P388 leukemia ip, CD2F1 mice, survival T/C", "T/C": "94 % of control"}
{"compound": "Nc1nc(-c2ccc3ccccc3c2)cc(-c2cc(-c3ccc4ccccc4c3)nc(N)n2)n1", "assayed-target": "P388 leukemia ip, CD2F1 mice, survival T/C", "T/C": "91 % of control"}
{"compound": "c1cc(-c2ncc3ccncc3n2)ccn1", "assayed-target": "P388 leukemia ip, CD2F1 mice, survival T/C", "T/C": "98 % of control"}
{"compound": "COC(=O)NN(C(=O)OC)C1CCCC2C1c1ccc3ccccc3c1N(C(=O)OC)N2C(=O)OC (stereo not given)", "assayed-target": "P388 leukemia ip, CD2F1 mice, survival T/C", "T/C": "109 % of control"}
{"compound": "CN(C)c1ccc(C=C2C(=O)N(c3ccccc3)C(=S)N(c3ccccc3)C2=O)cc1", "assayed-target": "P388 leukemia ip, CD2F1 mice, survival T/C", "T/C": "92 % of control"}
{"compound": "CC1=CC(O)(c2ccccn2)P(=O)(c2ccccc2)C=C1C (stereo not given)", "assayed-target": "P388 leukemia ip, CD2F1 mice, survival T/C", "T/C": "99 % of control"}
